Biological target: T1, PBX1HD (UniProt P40424 227-317)
T1 sequence: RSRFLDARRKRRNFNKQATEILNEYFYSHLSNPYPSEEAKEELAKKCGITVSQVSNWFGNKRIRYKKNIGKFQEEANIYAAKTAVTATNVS
Test: fluorescence polarization; FP and EMSA: 20 mM Na/K phosphate pH 7.2, 150 mM NaCl, 5% glycerol, 1 mM TCEP, room temperature (FP 9 nM DNA, 30 min; EMSA gel run at 4 C in 0.5x TBE); NMR: 20
Conditions: protein: recombinant; tags: GST cleaved (pGEX-6P); label: 5' 6-FAM (FP); unlabeled in EMSA and NMR
reported-endpoint: pKd
Lab note: report pKd as minus log10 of the concentration in molar units, number only.

Sample PMH (dsDNA) DNA 1: AGTGATTGACAGATTC DNA 2: GAATCTGTCAATCACT — what was its pKd?
6.44
